Origin of the recorded values: ChEMBL document CHEMBL3576806

- Assay Comment: AUC (0 to t) in ob/ob mouse at 50 mg/kg, ip measured after 0.5 to 24 hrs
- Type: ADME, organism-based
- Design: dose 50 mg/kg, time upper 24 hr, time lower 0.5 hr, route intraperitoneal
- Details: in vivo
Reported Metric: AUC(0-t) (ng·h/mL)

Molecule: COc1ccc(CC2COC(=O)C2Cc2ccc(Cl)cc2)cc1OC (racemic)
Reported Metric: AUC(0-t)
Reported Result: 1880

* * *

- Test system: L6
- Assay Comment: Ratio of glucose uptake in rat L6 cells at 3 uM after 2 hrs to glucose uptake in rat L6 cells at 3 uM after 2 hrs in presence of 3 uM (-)-arctigenin
- Type: functional
Threshold check on Ratio: at or above 0.6 gives condition met, strictly below gives condition not met.

Chemical Smiles: COc1ccc(C[C@H]2COC(=O)[C@@H]2Cc2ccc(C#N)cc2)cc1OC
Class Assignment: condition not met
//
Chemical Smiles: COc1ccc(C[C@H]2COC(=O)[C@@H]2Cc2ccc(O)c(O)c2)cc1OC
Class Assignment: condition met
//
Chemical Smiles: COc1ccc(C[C@H]2COC(=O)[C@@H]2Cc2ccc(OC)c(OC)c2)cc1OC
Class Assignment: condition not met
//
Chemical Smiles: COc1ccc(C[C@H]2COC(=O)[C@@H]2Cc2ccccc2Cl)cc1OC
Class Assignment: condition not met
//
Chemical Smiles: COc1ccc(C[C@H]2COC(=O)[C@@H]2Cc2cccc(Cl)c2)cc1OC
Class Assignment: condition not met
//
Chemical Smiles: COc1ccccc1C[C@H]1C(=O)OC[C@@H]1Cc1ccc(OC)c(OC)c1
Class Assignment: condition not met

* * *

- Assay Comment: Cmax in ob/ob mouse at 50 mg/kg, ip measured after 0.5 to 24 hrs
- Assay type: ADME, organism-based
- Parameters: dose 50 mg/kg, route intraperitoneal
- Details: in vivo

Molecule: COc1ccc(CC2COC(=O)C2Cc2ccc(Cl)cc2)cc1OC (racemic)
Measurement Units: ng/mL
Cmax: 508

* * *

- Assay Comment: Tmax in ob/ob mouse at 50 mg/kg, ip measured after 0.5 to 24 hrs
- Assay type: ADME, organism-based
- Details: in vivo
Listing of recorded Tmax by entry.
Reported Metric: Tmax (min)

Compound: COc1cc(CC2C(=O)OCC2Cc2ccc(OC)c(OC)c2)ccc1O (racemic)
Reported Metric: Tmax
Reported Result: 30
//
Compound: COc1ccc(CC2COC(=O)C2Cc2ccc(Cl)cc2)cc1OC (racemic)
Reported Metric: Tmax
Reported Result: 30

* * *

Listing of recorded Activity by entry.
- Tested on: L6
- Assay Comment: Increase in glucose uptake in rat L6 cells at 3 uM […] using 2-deoxy-D-[1,2-3H]glucose and measured after 2 hrs […] by liquid scintillation counting method
- Type: functional
Reported Metric: Activity

Chemical Smiles: COc1ccc(C[C@H]2COC(=O)[C@@H]2Cc2ccccc2Cl)cc1OC
Target: L6
Reported Result: 206.4%

Chemical Smiles: COc1ccc(C[C@H]2COC(=O)[C@@H]2Cc2ccc(N)cc2)cc1OC
Target: L6
Reported Result: 205.4%

Chemical Smiles: COc1ccc(C[C@H]2COC(=O)[C@@H]2Cc2cccc(Cl)c2)cc1OC
Target: L6
Reported Result: 212.4%

Chemical Smiles: COc1ccc(C[C@H]2COC(=O)[C@@H]2Cc2ccc(OC)c(OC)c2)cc1OC
Target: L6
Reported Result: 237.6%

Chemical Smiles: COc1ccccc1C[C@H]1C(=O)OC[C@@H]1Cc1ccc(OC)c(OC)c1
Target: L6
Reported Result: 190.1%

Chemical Smiles: COc1ccc(C[C@H]2COC(=O)[C@@H]2Cc2ccc(C#N)cc2)cc1OC
Target: L6
Reported Result: 258.7%

Chemical Smiles: COc1ccc(C[C@H]2COC(=O)[C@@H]2Cc2ccc(O)c(O)c2)cc1OC
Target: L6
Reported Result: 238.9%
